For each entry below, report its Reduction value.
# Test system: Cricetinae gen. sp.
# assay.explanation: In vivo hypocholesterolemic activity in golden hamsters, fed with a diet containing 2% cholesterol at a dose of 10 mg/kg, po
# Type: functional, Mesocricetus auratus
Answers are plain numbers, in %.

Example entries and their recorded answers appear below.
INSERT INTO assay_data (compound, recorded_number) VALUES
  ('Cc1ccc2c(c1)C(C(=O)Nc1c(C(C)C)cccc1C(C)C)c1ccccc1CC2 (centres undefined)', -1),
  ('CCCCCCCN(Cc1ccc(CC(C)(C)C)cc1)C(=O)Nc1ccc(F)cc1F', 35),
  ('CC(C)c1cccc(C(C)C)c1NC(=O)C1c2ccccc2CCc2ccc(Br)cc21 (centres undefined)', 42);

With those in mind, consider the next compound.
# input compound: CC(C)c1cccc(C(C)C)c1NC(=O)C1c2ccccc2CCc2ccccc21 ; wanted: its Reduction
3
